Known % Viability at 1 μg/mL of a selection of molecules
- Tested on: Jurkat cells
- assay remarks: (r) Cell cytotoxicity assay
- Format: cell-based, human
- condition label: 1 μg/mL, 24 hours
// note: answer is a bare numeric in %

Completed entries (count: 3):
> print(dat)
                                   molecule       measured.quantity  unit.abbrev  measured
1  COc1cc(Nc2cc(Oc3ccc(NC(=O)Nc4cc(C(C)(C)C)cc(NS(C)(=O)=O)c4OC)c4ccccc34)ccn2)ccc1S(=O)(=O)CCOCCOCCO [Example 40]  % Viability at 1 μg/mL            %      89.6
2  COc1cc(Nc2cc(Oc3ccc(NC(=O)Nc4cc(C(C)(C)C)cc(NS(C)(=O)=O)c4OC)c4ccccc34)ccn2)ccc1C(=O)NCCN1CCN(C2CC2)CC1 [Example 26]  % Viability at 1 μg/mL            %      94.8
3  COc1c(NC(=O)Nc2ccc(Oc3ccnc(Nc4ccc(C(=O)NCCOCCOCCO)c(N(C)C)c4)c3)c3ccccc23)cc(C(C)(C)C)cc1NS(C)(=O)=O [17(bt)]  % Viability at 1 μg/mL            %      89.8

Find the recorded % Viability at 1 μg/mL belonging to COc1cc(Nc2nccc(Oc3ccc(NC(=O)Nc4cc(C(C)(C)C)cc(NS(C)(=O)=O)c4OC)c4ccccc34)n2)ccc1C(=O)NCCCN1CCN(C)CC1 [17(ap)] and report it. 97.8

Request: COc1cc(Nc2cc(Oc3ccc(NC(=O)Nc4cc(C(C)(C)C)cc(NS(C)(=O)=O)c4OC)c4ccccc34)ccn2)ccc1C(=O)NCCC(=O)O [17(ay)] 95.3

###

- assay remarks: Pharmacokinetics and total colon distribution after oral administration
- Assay type: in vivo
- condition label: male, C57BL/6, mouse, whole blood; mice, Ex. 36 measured after oral 5 mg/kg of Ex. 47 (Na salt), 8 h; read-out: Mean blood concentration
measured quantity: concentration at 8 h (ng/mL)
// note: answer is a bare numeric in ng/mL

Find the recorded concentration at 8 h belonging to COc1cc(Nc2cc(Oc3ccc(NC(=O)Nc4cc(C(C)(C)C)cc(NS(C)(=O)=O)c4OC)c4ccccc34)ccn2)cc(OC)c1C(=O)NCCOCCOCCO [Example 36] and report it. 0

###

- Test system: Jurkat cells
- assay remarks: (r) Cell cytotoxicity assay
- Assay type: cell-based, human
- condition label: 1 μg/mL, 24 hours
- Protocol: 1×10^5 Jurkat cells (immortalised human T lymphocytes) are added to the appropriate number of wells of a 96 well plate in 100 μL of media (RPMI supplemented with 10% foetal bovine serum). […] After 15 minutes, cells are analysed by flow cytometry (BD accuri) using the FL3 window. The % viability is calculated as the % of cells that are PI negative in the test wells normalised to the DMSO control.
measured quantity: % Viability at 1 μg/mL (%)
// note: answer is a bare numeric in %

Completed entries (count: 10):
molecule	target desc	% Viability at 1 μg/mL / %
COc1cc(Nc2cc(Oc3ccc(NC(=O)Nc4cc(C(C)(C)C)cc(NS(C)(=O)=O)c4OC)c4ccccc34)ccn2)ccc1C(=O)NCCOCCOCCC(=O)O	Jurkat cells	95.4
COc1cc(Nc2cc(Oc3ccc(NC(=O)Nc4cc(C(C)(C)C)cc(NS(C)(=O)=O)c4OC)c4ccccc34)ccn2)ccc1C(=O)NCCCN1CCOCC1	Jurkat cells	102.8
COc1cc(Nc2cc(Oc3ccc(NC(=O)Nc4cc(C(C)(C)C)cc(NS(C)(=O)=O)c4OC)c4ccccc34)ccn2)ccc1C(=O)N[C@H]1C(O)O[C@H](CO)[C@@H](O)[C@@H]1O (stereo partly drawn)	Jurkat cells	91.8
COc1cc(Nc2cc(Oc3ccc(NC(=O)Nc4cc(C(C)(C)C)cc(NS(C)(=O)=O)c4OC)c4ccccc34)ccn2)cc(OC)c1C(=O)N1CCN(CCN(C)C)CC1	Jurkat cells	96.1
COc1cc(Nc2cc(Oc3ccc(NC(=O)Nc4cc(C(C)(C)C)cc(C(N)=O)c4OC)c4ccccc34)ccn2)ccc1C(=O)O	Jurkat cells	93.4
COc1cc(Nc2cc(Oc3ccc(NC(=O)Nc4cc(C(C)(C)C)cc(NS(C)(=O)=O)c4OC)c4ccccc34)ccn2)ccc1C(=O)N(C)CCN1CCN(C)CC1	Jurkat cells	99.5
COc1c(NC(=O)Nc2ccc(Oc3ccnc(Nc4ccc(P(C)(=O)O)c(N(C)C)c4)c3)c3ccccc23)cc(C(C)(C)C)cc1NS(C)(=O)=O	Jurkat cells	95.6
COc1cc(Nc2cc(Oc3ccc(NC(=O)Nc4cc(C(C)(C)C)cc(NS(C)(=O)=O)c4OC)c4ccccc34)ccn2)ccc1C(=O)NCCOCCOCCOP(=O)(O)O	Jurkat cells	105.0
COc1c(NC(=O)Nc2ccc(Oc3ccnc(Nc4ccc(C(=O)NCCN5CCN(C)CC5)c(N(C)C)c4)c3)c3ccccc23)cc(C(C)(C)C)cc1NS(C)(=O)=O	Jurkat cells	87.2
COc1c(NC(=O)Nc2ccc(Oc3ccnc(Nc4ccc(C(=O)O)c(N(C)C)c4)c3)c3ccccc23)cc(C(C)(C)C)cc1NS(C)(=O)=O	Jurkat cells	103.4

Find the recorded % Viability at 1 μg/mL belonging to COCCOCCOCCS(=O)(=O)c1ccc(Nc2cc(Oc3ccc(NC(=O)Nc4cc(C(C)(C)C)cc(NS(C)(=O)=O)c4OC)c4ccccc34)ccn2)cc1OC and report it. 74.5

Request: COc1cc(Nc2cc(Oc3ccc(NC(=O)Nc4cc(C(C)(C)C)cc(NS(C)(=O)=O)c4OC)c4ccccc34)ccn2)ccc1S(=O)(=O)CCCN1CCN(C)CC1 82.0

###

- assay remarks: Pharmacokinetics and total colon distribution after oral administration
- Assay type: in vivo
- condition label: male, C57BL/6, mouse, total colon; mice, Ex. 36 measured after oral 5 mg/kg of Ex. 47 (Na salt), 8 h; read-out: total colon level
measured quantity: concentration at 8 h (ng/g)
// note: answer is a bare numeric in ng/g

Find the recorded concentration at 8 h belonging to COc1cc(Nc2cc(Oc3ccc(NC(=O)Nc4cc(C(C)(C)C)cc(NS(C)(=O)=O)c4OC)c4ccccc34)ccn2)cc(OC)c1C(=O)NCCOCCOCCO and report it. 1070

###

Known pIC50 of a selection of molecules
- target desc: p38 MAPKα (MAPK14) (Homo sapiens (Human), UniProt Q16539)
- Sequence (Q16539 whole entry): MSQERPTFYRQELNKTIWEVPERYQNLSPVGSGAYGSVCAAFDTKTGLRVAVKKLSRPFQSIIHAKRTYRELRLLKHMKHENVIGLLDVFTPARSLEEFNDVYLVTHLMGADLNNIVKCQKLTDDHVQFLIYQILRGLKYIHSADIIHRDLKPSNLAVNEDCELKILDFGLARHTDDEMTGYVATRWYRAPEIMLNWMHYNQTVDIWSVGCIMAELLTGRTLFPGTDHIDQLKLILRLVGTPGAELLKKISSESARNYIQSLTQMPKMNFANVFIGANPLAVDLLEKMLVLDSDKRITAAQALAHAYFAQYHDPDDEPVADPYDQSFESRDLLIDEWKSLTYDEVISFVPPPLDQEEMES
Please keep in mind that pIC50 is minus log10 of the molar concentration; only the number is needed.

> print(dat)
                        structure.as.smiles  measured.quantity  measured
1  COc1c(NC(=O)Nc2ccc(Oc3ccnc(Nc4ccc(OCCN5CCOCC5)c(C#N)c4)c3)c3ccccc23)cc(C(C)(C)C)cc1NS(C)(=O)=O              pIC50      6.71
2  COc1cc(Nc2cc(Oc3ccc(NC(=O)Nc4cc(C(C)(C)C)cc(NS(C)(=O)=O)c4OC)c4ccccc34)ccn2)ccc1C(=O)N(C)CCCN1CCOCC1              pIC50      8.30
3  C#Cc1cc(Nc2cc(Oc3ccc(NC(=O)Nc4cc(C(C)(C)C)cc(NS(C)(=O)=O)c4OC)c4ccccc34)ccn2)ccc1C(=O)NCCN1CCOCC1              pIC50      7.19
4  COCCOCCOCCOc1ccc(Nc2cc(Oc3ccc(NC(=O)Nc4cc(C(C)(C)C)cc(NS(C)(=O)=O)c4OC)c4ccccc34)ccn2)cc1C#N              pIC50      6.67
5  COc1c(NC(=O)Nc2ccc(Oc3ccnc(Nc4ccc(C(=O)O)c(N(C)C)c4)c3)c3ccccc23)cc(C(C)(C)C)cc1NS(C)(=O)=O              pIC50      8.40
6  COc1cc(Nc2cc(Oc3ccc(NC(=O)Nc4cc(C(C)(C)C)cc(NS(C)(=O)=O)c4OC)c4ccccc34)ccn2)ccc1P(C)(=O)O              pIC50      7.96
7  COc1cc(Nc2cc(Oc3ccc(NC(=O)Nc4cc(C(C)(C)C)cc(NS(C)(=O)=O)c4OC)c4ccccc34)ccn2)ccc1S(=O)(=O)CC(CO)(CO)CO              pIC50      7.44
8  COc1cc(Nc2cc(Oc3ccc(NC(=O)Nc4cc(C(C)(C)C)cc(NS(C)(=O)=O)c4OC)c4ccccc34)ccn2)ccc1C(=O)NC(CO)(CO)CO              pIC50      7.33

Find the recorded pIC50 belonging to COc1cc(Nc2cc(Oc3ccc(NC(=O)Nc4cc(C(C)(C)C)cc(NS(C)(=O)=O)c4OC)c4ccccc34)ccn2)ccc1C(=O)NCCN1CCOCC1(C)C and report it. 6.81

Request: COc1cc(Nc2cc(Oc3ccc(NC(=O)Nc4cc(C(C)(C)C)cc(NS(C)(=O)=O)c4OC)c4ccccc34)ccn2)cc(OC)c1C(=O)NCCN(C)C 8.22

Request: COc1cc(Nc2cc(Oc3ccc(NC(=O)Nc4cc(C(C)(C)C)cc(NS(C)(=O)=O)c4OC)c4ccccc34)ccn2)ccc1S(=O)(=O)CCOCCOCCO 6.79

Request: COCCOCCOCCNC(=O)c1ccc(Nc2cc(Oc3ccc(NC(=O)Nc4cc(C(C)(C)C)cc(NS(C)(=O)=O)c4OC)c4ccccc34)ccn2)cc1OC 6.92
